Would you kindly list Ki for each of these compounds?
Target: Cannabinoid receptor 2 (Homo sapiens)
Sequence (P34972 whole entry): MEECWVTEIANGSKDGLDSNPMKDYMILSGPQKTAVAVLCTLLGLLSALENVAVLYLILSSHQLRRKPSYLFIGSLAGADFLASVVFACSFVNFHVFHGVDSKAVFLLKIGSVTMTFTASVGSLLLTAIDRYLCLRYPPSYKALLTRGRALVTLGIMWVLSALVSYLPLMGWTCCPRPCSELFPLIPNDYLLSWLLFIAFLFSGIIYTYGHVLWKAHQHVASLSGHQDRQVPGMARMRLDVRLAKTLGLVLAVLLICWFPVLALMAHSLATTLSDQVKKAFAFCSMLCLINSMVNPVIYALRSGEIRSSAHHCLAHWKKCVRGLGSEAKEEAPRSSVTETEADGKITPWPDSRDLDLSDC
Experiment: Inhibition of beta-arrestin binding to recombinant cannabinoid CB2 receptor
Kindly provide the numeric value in nM only, without the unit symbol.

Which Ki is reported with Cannabinoid receptor 2 (Homo sapiens) for this entry: C[C@@H]1CN(S(=O)(=O)c2cc3ccccc3n2S(=O)(=O)c2ccccc2F)CC[C@H]1CNS(=O)(=O)C(F)(F)F ?
0.5

Which Ki is reported with Cannabinoid receptor 2 (Homo sapiens) for this entry: O=S(=O)(c1ccccc1F)c1occc1S(=O)(=O)N1CCC(CNS(=O)(=O)C(F)(F)F)CC1 ?
1.4

Which Ki is reported with Cannabinoid receptor 2 (Homo sapiens) for this entry: O=S(=O)(c1cc2ccccc2n1S(=O)(=O)c1ccccn1)N1CCC2(CC1)C[C@@H]2NS(=O)(=O)C(F)(F)F ?
0.4

Which Ki is reported with Cannabinoid receptor 2 (Homo sapiens) for this entry: O=S(=O)(c1cc2ccccc2n1S(=O)(=O)c1ccccc1F)N1CCC(CNS(=O)(=O)C(F)(F)F)CC1 ?
0.38

====

Would you kindly list Ki for each of these compounds?
Biological target: Cannabinoid receptor 2 (Homo sapiens)
Assay: Inhibition of beta-arrestin binding to recombinant cannabinoid CB2 receptor
Kindly provide the numeric value in nM only, without the unit symbol.

Which Ki is reported with Cannabinoid receptor 2 (Homo sapiens) for this entry: COC1(CNS(=O)(=O)C(F)(F)F)CCN(S(=O)(=O)c2cc3cccnc3n2S(=O)(=O)c2ccccc2F)CC1 ?
2.5

Which Ki is reported with Cannabinoid receptor 2 (Homo sapiens) for this entry: COc1ccc2c(c1)cc(S(=O)(=O)N1CCC(CNS(=O)(=O)C(F)(F)F)CC1)n2S(=O)(=O)c1ccccc1F ?
0.8

Which Ki is reported with Cannabinoid receptor 2 (Homo sapiens) for this entry: O=S(=O)(c1cc2ccccc2n1S(=O)(=O)c1ccccc1F)N1CCCC(CCNS(=O)(=O)C(F)(F)F)C1 (stereo not drawn) ?
258

Which Ki is reported with Cannabinoid receptor 2 (Homo sapiens) for this entry: CC[C@]1(CNS(=O)(=O)C(F)(F)F)CCN(S(=O)(=O)c2cc3ccccc3n2S(=O)(=O)c2ccccc2F)C[C@H]1C ?
3.1

Which Ki is reported with Cannabinoid receptor 2 (Homo sapiens) for this entry: O=S(=O)(c1cc2ccccc2n1S(=O)(=O)c1ccccc1F)N1CCC2(CC1)CN(S(=O)(=O)C(F)(F)F)C2 ?
8430

Which Ki is reported with Cannabinoid receptor 2 (Homo sapiens) for this entry: O=S(=O)(c1cc2ccccc2n1S(=O)(=O)c1ccccc1F)N1CCC2(CC(NS(=O)(=O)C(F)(F)F)C2)C1 (stereo not drawn) ?
452

Which Ki is reported with Cannabinoid receptor 2 (Homo sapiens) for this entry: CC1(C)CN(S(=O)(=O)c2cc3ccccc3n2S(=O)(=O)c2ccccc2F)CCC1CNS(=O)(=O)C(F)(F)F (stereo not drawn) ?
4.2

Which Ki is reported with Cannabinoid receptor 2 (Homo sapiens) for this entry: O=S(=O)(c1cc2ccccc2n1S(=O)(=O)c1ccccc1F)N1CCC(O)(CNS(=O)(=O)C(F)(F)F)CC1 ?
0.2

====

Would you kindly list AUC for each of these compounds?
Experiment: AUC in rat at 10 mg/kg
Type: ADME, organism-based
Design: dose 10 mg/kg
Conditions: plasma
Kindly provide the numeric value in µM·h only, without the unit symbol.

Entry O=S(=O)(c1cc2ccccc2n1S(=O)(=O)c1ccccn1)N1CCC2(CC1)C[C@@H]2NS(=O)(=O)C(F)(F)F : reported AUC = ?
4.56

Entry COC1(CNS(=O)(=O)C(F)(F)F)CCN(S(=O)(=O)c2cc3cccnc3n2S(=O)(=O)c2ccccc2F)CC1 : reported AUC = ?
3.19

Entry CCCC1(CNS(=O)(=O)C(F)(F)F)CCN(S(=O)(=O)c2cc3ccccc3n2S(=O)(=O)c2ccccn2)CC1 : reported AUC = ?
17.6

Entry CCC1(CNS(=O)(=O)C(F)(F)F)CCN(S(=O)(=O)c2cc3cc(F)ccc3n2S(=O)(=O)c2ccccc2F)CC1 : reported AUC = ?
3.77
